Listed next: entries and their corresponding functional reporter gene assay (% inhibition), 0.04 µg/mL mAb.
# TARGET_OR_TEST_SYSTEM: T1, human IL-1RAcP on 293T/17-FR cells (human, UniProt Q9NPH3 21-570)
# T1 sequence (looked up): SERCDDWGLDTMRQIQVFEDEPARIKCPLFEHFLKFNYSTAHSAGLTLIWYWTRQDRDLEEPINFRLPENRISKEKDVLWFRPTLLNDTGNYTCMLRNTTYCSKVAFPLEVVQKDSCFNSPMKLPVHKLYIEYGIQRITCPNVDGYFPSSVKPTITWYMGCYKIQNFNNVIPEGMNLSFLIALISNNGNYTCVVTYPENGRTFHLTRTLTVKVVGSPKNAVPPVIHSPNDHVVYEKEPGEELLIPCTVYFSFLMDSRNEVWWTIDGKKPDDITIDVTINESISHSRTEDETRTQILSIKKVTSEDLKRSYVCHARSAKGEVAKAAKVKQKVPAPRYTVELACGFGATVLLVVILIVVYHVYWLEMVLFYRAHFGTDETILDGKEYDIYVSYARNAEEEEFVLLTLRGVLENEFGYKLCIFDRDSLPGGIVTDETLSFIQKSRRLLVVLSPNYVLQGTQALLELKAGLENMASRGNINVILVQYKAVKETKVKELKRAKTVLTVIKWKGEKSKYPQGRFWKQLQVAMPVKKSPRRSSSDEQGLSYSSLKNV
# METHOD_DESCRIPTION: cell-based or functional assay
OUTCOME_MEASURE: functional reporter gene assay (% inhibition), 0.04 µg/mL mAb (%)

BINDER | REPORTED
P013.S.01.B.A03 (antibody, V domains shown, rabbit monoclonal antibody; also called P013.A.00088.A07) VH: QEQLEESGGDLVQPEGSLTVTCTASGFSFSFGYYMCWVRQAPGKGLEWIACIYGDSSDTLYANWAKGRFTVSKTSSTTVTLQMTSLTAADTATYFCARYPGGSYYNLWGPGTRVTVSS VL: ALVMTQTPASVEAAVGGTVTIKCQASQTISINLAWYQQKPGQRPKLLIYYASTLASGVPSRFSGSGSGTEFTLTISGVQSDDAATYYCQQGYTEDNIDNTFGGGTEVVVK | 77
P013.S.01.B.F04 (antibody, V domains shown, rabbit monoclonal antibody; also called P013.A.00133.A12) VH: LEQSGGGAEGGLVKPGGSLELCCKASGFSLSTSYWRCWVRQAPGKGLEWIGCIYAGSSDATYYANWVNGRFTLSRDIDQSTGCLQLNSLTAADTAMYYCASGVGFGYFNLWGQGTLVTVSS VL: ALVMTQTPSPVSAAVGGTVTINCQASEDIYSNLAWFQQKPGQPPKLLIYDASTLASGVPSRFSGSGSGTEFTLTISGLQSDDAATYYCLGVYTHISADNAFGGGTEVVVK | 38
P013.S.02.B.G01 (antibody, V domains shown, rabbit monoclonal antibody; also called P013.A.00015.G07) VH: QSVEESGGRLVTPGGSLTLTCKVSGFSLSDYDIYWVRQAPGKGLEWIGVIDIENSVYYPTWAKGRFTISKTSTTVDLKITSPTTEDTATYFCARGDYIMTLDLWGQGTLVTVSS VL: AAVLTQTPSPVSAAVGGTVTISCQASQSVYKNNRLAWYQQKPGQPPKLLIYLASTLASGVPSRFKGSGSGTQFTLTISDLESDDAATYYCAGGYSTISENAFGGGTEVVVK | 1
